# targetOfAssay: Protein arginine N-methyltransferase 5 (Homo sapiens, UniProt O14744)
# Sequence (O14744 whole entry): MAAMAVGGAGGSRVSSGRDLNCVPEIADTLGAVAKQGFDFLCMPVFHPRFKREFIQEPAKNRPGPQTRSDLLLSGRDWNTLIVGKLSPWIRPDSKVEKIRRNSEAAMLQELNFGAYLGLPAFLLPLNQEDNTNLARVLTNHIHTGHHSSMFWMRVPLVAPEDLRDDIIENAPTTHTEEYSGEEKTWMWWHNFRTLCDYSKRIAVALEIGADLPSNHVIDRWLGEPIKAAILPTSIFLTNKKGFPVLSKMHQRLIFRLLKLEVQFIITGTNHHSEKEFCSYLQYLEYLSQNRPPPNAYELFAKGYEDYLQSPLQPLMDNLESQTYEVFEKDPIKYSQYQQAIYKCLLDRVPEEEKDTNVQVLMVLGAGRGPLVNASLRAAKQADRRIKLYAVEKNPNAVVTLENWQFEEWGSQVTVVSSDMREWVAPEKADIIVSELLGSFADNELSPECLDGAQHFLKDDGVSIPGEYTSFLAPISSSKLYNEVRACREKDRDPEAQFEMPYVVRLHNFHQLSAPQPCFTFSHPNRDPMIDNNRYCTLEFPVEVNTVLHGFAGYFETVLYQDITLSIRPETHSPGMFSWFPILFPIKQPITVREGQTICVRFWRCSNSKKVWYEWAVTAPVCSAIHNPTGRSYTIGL
metric: IC50

Prompt: Consider the compound shown here: `COc1cc2nc(N3CCCC3)nc(NCCCCCN3CCCC3)c2cc1OC` What is its recorded IC50?
Response: > 100 µM

----------
# targetOfAssay: Protein arginine N-methyltransferase 3 (Homo sapiens, UniProt O60678)
# Sequence (O60678 whole entry): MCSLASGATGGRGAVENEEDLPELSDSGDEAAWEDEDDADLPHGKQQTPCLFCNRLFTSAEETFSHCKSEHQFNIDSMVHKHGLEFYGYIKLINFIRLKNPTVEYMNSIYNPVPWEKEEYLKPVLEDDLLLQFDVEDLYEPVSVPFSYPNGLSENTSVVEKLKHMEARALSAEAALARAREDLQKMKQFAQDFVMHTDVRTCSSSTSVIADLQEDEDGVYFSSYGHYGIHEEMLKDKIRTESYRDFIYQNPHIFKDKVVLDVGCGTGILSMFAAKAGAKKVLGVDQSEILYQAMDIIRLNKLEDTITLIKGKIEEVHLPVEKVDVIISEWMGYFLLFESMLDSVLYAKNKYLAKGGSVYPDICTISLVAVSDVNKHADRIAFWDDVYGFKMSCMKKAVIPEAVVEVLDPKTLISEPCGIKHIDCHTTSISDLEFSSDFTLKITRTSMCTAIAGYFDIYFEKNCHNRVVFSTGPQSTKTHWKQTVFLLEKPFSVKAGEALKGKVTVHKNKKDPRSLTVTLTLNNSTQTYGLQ
# testMethodNotes: Inhibition of PRMT3 (unknown origin) assessed as incorporation of tritium-labeled methyl group to lysine or arginine residues of peptide substrate by radioactive assay
metric: IC50

Prompt: Consider the molecule shown here: `COc1cc2nc(N3CCCC3)nc(NCCCCCN3CCCC3)c2cc1OC` What is its recorded IC50?
Response: > 100 µM
